- TARGET_SYSTEM: Ba/F3 cells containing Ros1 with a mutation at the gatekeeper residue (L2026M) (Homo sapiens, UniProt P08922, L2026M, cells depend on it, form not given)
- Sequence (P08922 whole entry L2026M, form open): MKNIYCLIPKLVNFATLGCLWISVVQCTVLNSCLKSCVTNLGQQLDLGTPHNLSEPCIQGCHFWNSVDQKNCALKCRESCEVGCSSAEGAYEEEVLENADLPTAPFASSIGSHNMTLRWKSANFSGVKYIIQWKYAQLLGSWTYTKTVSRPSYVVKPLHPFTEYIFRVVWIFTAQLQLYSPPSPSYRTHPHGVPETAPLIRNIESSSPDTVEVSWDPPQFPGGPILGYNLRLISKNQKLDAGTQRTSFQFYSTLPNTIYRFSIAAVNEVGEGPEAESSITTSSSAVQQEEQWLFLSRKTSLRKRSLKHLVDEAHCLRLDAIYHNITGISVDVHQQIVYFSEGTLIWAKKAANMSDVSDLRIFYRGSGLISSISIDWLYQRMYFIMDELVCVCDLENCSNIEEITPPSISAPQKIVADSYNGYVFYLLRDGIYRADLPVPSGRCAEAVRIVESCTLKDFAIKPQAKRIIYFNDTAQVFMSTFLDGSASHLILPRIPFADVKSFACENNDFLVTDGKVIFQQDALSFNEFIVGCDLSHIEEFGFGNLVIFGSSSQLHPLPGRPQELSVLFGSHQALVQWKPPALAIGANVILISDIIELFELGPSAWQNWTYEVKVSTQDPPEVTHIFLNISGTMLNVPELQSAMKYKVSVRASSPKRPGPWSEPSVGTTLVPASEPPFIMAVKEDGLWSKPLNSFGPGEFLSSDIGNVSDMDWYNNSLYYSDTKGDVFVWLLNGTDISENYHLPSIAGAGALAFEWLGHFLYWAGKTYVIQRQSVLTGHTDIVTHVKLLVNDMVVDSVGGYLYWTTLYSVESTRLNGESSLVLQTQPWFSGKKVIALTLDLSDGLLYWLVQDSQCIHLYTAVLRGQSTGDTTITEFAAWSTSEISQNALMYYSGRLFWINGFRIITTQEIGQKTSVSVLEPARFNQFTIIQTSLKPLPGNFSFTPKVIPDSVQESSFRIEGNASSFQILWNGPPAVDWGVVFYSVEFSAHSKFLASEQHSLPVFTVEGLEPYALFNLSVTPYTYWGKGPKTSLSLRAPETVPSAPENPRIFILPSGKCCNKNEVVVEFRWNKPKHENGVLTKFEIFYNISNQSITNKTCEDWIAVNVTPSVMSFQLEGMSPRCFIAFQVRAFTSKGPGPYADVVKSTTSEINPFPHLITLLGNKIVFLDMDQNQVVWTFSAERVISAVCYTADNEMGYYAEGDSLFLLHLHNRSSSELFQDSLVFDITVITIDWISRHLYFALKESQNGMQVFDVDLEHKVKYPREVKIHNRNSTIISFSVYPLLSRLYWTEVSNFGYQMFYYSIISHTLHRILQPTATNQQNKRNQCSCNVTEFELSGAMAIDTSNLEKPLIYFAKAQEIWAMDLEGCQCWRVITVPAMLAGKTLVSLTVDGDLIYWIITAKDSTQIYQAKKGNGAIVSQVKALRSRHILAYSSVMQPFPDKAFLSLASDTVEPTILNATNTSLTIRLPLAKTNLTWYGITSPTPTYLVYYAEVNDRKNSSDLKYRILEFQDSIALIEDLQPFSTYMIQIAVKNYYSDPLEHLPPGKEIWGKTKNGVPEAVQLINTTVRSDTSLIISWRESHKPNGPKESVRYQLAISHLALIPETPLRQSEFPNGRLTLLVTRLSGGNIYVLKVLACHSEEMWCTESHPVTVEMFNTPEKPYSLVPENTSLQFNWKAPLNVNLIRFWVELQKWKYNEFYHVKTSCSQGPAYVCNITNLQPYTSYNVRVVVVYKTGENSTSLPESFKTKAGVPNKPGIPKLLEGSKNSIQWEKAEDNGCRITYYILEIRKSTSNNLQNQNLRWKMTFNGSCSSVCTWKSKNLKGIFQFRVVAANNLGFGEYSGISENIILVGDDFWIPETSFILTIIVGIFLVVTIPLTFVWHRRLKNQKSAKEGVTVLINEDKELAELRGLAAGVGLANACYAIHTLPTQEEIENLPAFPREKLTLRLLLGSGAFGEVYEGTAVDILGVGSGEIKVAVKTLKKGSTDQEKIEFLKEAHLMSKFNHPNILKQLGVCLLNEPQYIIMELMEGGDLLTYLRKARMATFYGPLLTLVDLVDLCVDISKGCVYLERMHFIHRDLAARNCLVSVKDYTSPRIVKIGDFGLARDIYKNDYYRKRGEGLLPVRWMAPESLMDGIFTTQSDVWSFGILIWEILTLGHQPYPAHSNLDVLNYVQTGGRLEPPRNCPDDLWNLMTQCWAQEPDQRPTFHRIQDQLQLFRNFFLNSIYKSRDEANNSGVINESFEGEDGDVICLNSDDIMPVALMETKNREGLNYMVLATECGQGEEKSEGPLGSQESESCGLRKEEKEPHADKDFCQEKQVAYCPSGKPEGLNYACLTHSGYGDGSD
- ASSAY_NAME: Ba/F3-Ros1 cell proliferation assay, L2026M gatekeeper mutant
- Type: cell-based, murine
- ASSAY_CONTEXT: without IL-3
Field: Ba/F3 Ros1 L2026M (-IL-3) pIC50. Provide a value for each of the compounds that follow.

Input: Quickly give me recorded Ba/F3 Ros1 L2026M (-IL-3) pIC50 for CC(C)c1ccc(COc2ccc(-c3c(-c4ccncc4)nn4c3C(=O)N(CC(O)CO)CC4)cc2)c(F)c1F (stereo not drawn) [Compound 102]
Output: 6.4

Input: Quickly give me recorded Ba/F3 Ros1 L2026M (-IL-3) pIC50 for CC(C)c1ccc(COc2ccc(-c3c(-c4ccncc4)nn4c3C(=O)N(CCO)CC4)cc2)cc1
Output: 7.4

Input: Quickly give me recorded Ba/F3 Ros1 L2026M (-IL-3) pIC50 for O=C1c2c(-c3ccc(OCc4ccc(C5CC5)nc4)cc3)c(-c3ccncc3)nn2CCN1CC(O)CO (stereo not drawn)
Output: 5.8

Input: Quickly give me recorded Ba/F3 Ros1 L2026M (-IL-3) pIC50 for CC(C)c1ccc(COc2ccc(-c3c(-c4ccncc4)nn4c3C(=O)N(CC(C)(C)O)CC4)cc2)cc1
Output: 7.3

Input: Quickly give me recorded Ba/F3 Ros1 L2026M (-IL-3) pIC50 for O=C1c2c(-c3ccc(OCc4ccc(C5CC5)nc4)cc3F)c(-c3ccncc3)nn2CCN1CC(O)CO (stereo not drawn)
Output: 6.3

Input: Quickly give me recorded Ba/F3 Ros1 L2026M (-IL-3) pIC50 for CC(C)c1cc(F)c(COc2ccc(-c3c(-c4ccncc4)nn4c3C(=O)N(CCO)CC4)cc2)cc1F
Output: 6.3

Input: Quickly give me recorded Ba/F3 Ros1 L2026M (-IL-3) pIC50 for CC(C)c1ccc(CC(=O)N2CC=C(c3c(-c4ccncc4)nn4c3C(=O)NCC4)CC2)cc1
Output: 6.3

Input: Quickly give me recorded Ba/F3 Ros1 L2026M (-IL-3) pIC50 for CC(C)c1ccc(CC(=O)c2ccc(-c3c(-c4ccncc4)nn4c3C(=O)NCC4)cc2)cc1
Output: 5.9

Input: Quickly give me recorded Ba/F3 Ros1 L2026M (-IL-3) pIC50 for COCCOc1cc(COc2ccc(-c3c(-c4ccncc4)nn4c3C(=O)NCC4)cc2)ccc1C(C)C
Output: 7.4
